Tested on: HL-60(TB) leukemia
Assay: NCI tumour cell line growth inhibition, 48 h; in the data active = GI50 below about 0.43 µM; inactive = the rest
Classes used: active, inactive

- compound: "COc1ccccc1/C=C/C1=C(C)CCC(c2ccccc2OC)C1C (stereo not given)"
  test.target: "HL-60(TB) leukemia"
  group: "active"
- compound: "COc1ccc(C(=O)O[C@H]2[C@H](O[C@H]3[C@@H](O)COC(O[C@H]4C[C@H]5[C@@H]6CC=C7C[C@@H](O)CC[C@]7(C)[C@H]6CC[C@]5(C)[C@H]4[C@H](C)C(=O)CCC(C)C)[C@@H]3OC(C)=O)OC[C@@H](O)[C@@H]2O)c(C)c1 (stereo not given in full)"
  test.target: "HL-60(TB) leukemia"
  group: "active"
- compound: "N#Cc1ccccc1C#C/C=C\\C#Cc1ccccc1N"
  test.target: "HL-60(TB) leukemia"
  group: "inactive"
- compound: "CCCCCCCCCCCCCCCCCCOc1ccccc1CC(=O)OCC[N+](CC)(CC)CC"
  test.target: "HL-60(TB) leukemia"
  group: "inactive"
- compound: "NC(Cc1c[nH]c2ccc(F)cc12)C(=O)O (stereo not given)"
  test.target: "HL-60(TB) leukemia"
  group: "inactive"
- compound: "Cc1nc(-c2cnc(NC(C)C)n(C)c2=O)ccc1Oc1ccnc(-c2cnn(C)c2)c1"
  test.target: "HL-60(TB) leukemia"
  group: "inactive"
- compound: "C=C1C(=O)O[C@H]2[C@H]1CC/C(Cn1cc(-c3cccc(Cl)c3)nn1)=C\\CC[C@@]1(C)O[C@@H]21"
  test.target: "HL-60(TB) leukemia"
  group: "active"
- compound: "COc1cccc(C2=C(c3cn(C)c4cc(F)ccc34)C(=O)NC2=O)c1"
  test.target: "HL-60(TB) leukemia"
  group: "inactive"
- compound: "CC(=O)[CH-]C(=O)c1ccccc1.CC(=O)[CH-]C(=O)c1ccccc1.CC(C)CCC[C@H](C)C1CCC2[C@@H]3CC=C4C[C@@H]([O-])CC[C@]4(C)C3CC[C@@]21C.CC(C)CCC[C@H](C)C1CCC2[C@@H]3CC=C4C[C@@H]([O-])CC[C@]4(C)C3CC[C@@]21C.Cl.[Ti+4] (stereo not given in full)"
  test.target: "HL-60(TB) leukemia"
  group: "inactive"
- compound: "CN1CCN(c2ccc(NC(=O)c3cncnc3Nc3ccc(OCc4cccc(F)c4)c(Cl)c3)cc2)CC1"
  test.target: "HL-60(TB) leukemia"
  group: "inactive"

###

Tested on: OVCAR-4 ovarian
Experiment: NCI tumour cell line growth inhibition, 48 h

- molecule: "Cc1ccc(NC(=O)Nc2c(Cl)cccc2Cl)cn1"
  GI50: "65000 nM"
- molecule: "OCc1ccc(N2CCc3cc(F)ccc3C2)cc1Cl"
  GI50: "27.7 nM"
- molecule: "Cc1ccc(Cl)cc1NC(=O)c1cc2ccccc2cc1O"
  GI50: "409 nM"
- molecule: "CC(c1ccccc1)[C@@H](C(=O)Nc1ccc(I)cc1F)N1C(=O)N[C@H](c2ccc(OC[C@H](O)CO)cc2)C1=O (stereo not given in full)"
  GI50: "8970 nM"
- molecule: "O=C(Nc1ccc(-n2ccc3c(NC(=O)c4ccccc4)nccc32)cc1)Nc1cccc(C(F)(F)F)c1"
  GI50: "2650 nM"
- molecule: "Nc1nnnc2nc[nH]c12"
  GI50: "547 nM"
- molecule: "CCOC(=O)/C(C#N)=C1\\SS/C(=C(/C#N)C(=O)OCC)S1"
  GI50: "15100 nM"
- molecule: "Cc1ccc(/C=C/c2c(C(=O)/C=C/c3ccc(Cl)cc3)c(C)nc3ccccc23)cc1"
  GI50: "3970 nM"
- molecule: "COc1ccc(Cl)cc1Nc1nc(C(F)(F)F)ccc1C(=O)N/N=C/c1cccnc1"
  GI50: "521 nM"
- molecule: "O=c1c2ccccc2nc(-c2ccccc2Cl)n1-c1nnc(C(F)(F)F)s1"
  GI50: "3150 nM"

###

Test system: SNB-75 CNS
Assay: NCI tumour cell line growth inhibition, 48 h; in the data active = GI50 below about 0.43 µM; inactive = the rest
Classes used: 1 (active), 0 (inactive)

- compound: "NC1=NC(=O)/C(=C/c2ccc3ncccc3c2)S1"
  group: 0
- compound: "COc1ccccc1/C=C/C1=C(C)CCC(c2ccccc2OC)C1C (stereo not given)"
  group: 1
- compound: "Cc1ccc(-c2nc(N3CCNCC3)c3oc(-c4ccccc4)nc3n2)cc1"
  group: 0
- compound: "COc1cccc(C2=C(c3cn(C)c4cc(F)ccc34)C(=O)NC2=O)c1"
  group: 0
- compound: "CCCCN=C(N)c1ccc(N2CCCN(c3ccc(C(N)=NCCCC)cc3)CC2)cc1"
  group: 0

###

Test system: HCC-2998 colon
Assay: NCI tumour cell line growth inhibition, 48 h
# TGI values compiled below
readout: TGI

- compound: "COc1ccccc1-n1c(NN)nc2ccc(Br)cc2c1=O"
  readout: "TGI"
  val: "> 100 µM"
- compound: "Clc1ccc(CCc2ccncn2)c(Cl)c1"
  readout: "TGI"
  val: "> 100 µM"
- compound: "O=C(Cc1ccc([N+](=O)[O-])c([N+](=O)[O-])c1CC(=O)C(=O)Nc1cc(Cl)ccc1Cl)C(=O)Nc1cc(Cl)ccc1Cl"
  readout: "TGI"
  val: "> 100 µM"
- compound: "COc1ccc(Cn2cc3c(c2)-c2oncc2CC3)cc1OC"
  readout: "TGI"
  val: "2.54 µM"
- compound: "CC1(C)S[C@H](CN)N[C@H]1C(=O)OC(c1ccccc1)c1ccccc1"
  readout: "TGI"
  val: "36 µM"
- compound: "COc1cc2c(cc1O)CN1CCC23C=C[C@@H](O)CC13 (some centres undefined)"
  readout: "TGI"
  val: "> 100 µM"
- compound: "CCc1cc2c(c3c1CCCC3)CC1(Cc3ccc(C(=O)OC)cc3C1)C2 (centres undefined)"
  readout: "TGI"
  val: "> 100 µM"
- compound: "CC(NC1CCCC[C@H]1O)c1ccccc1 (some centres undefined)"
  readout: "TGI"
  val: "> 100 µM"
- compound: "C[C@@H](NC(=O)c1ncnc(N)c1Cl)c1ncc(C(=O)Nc2cc(C(F)(F)F)c(Cl)cn2)s1"
  readout: "TGI"
  val: "40.7 µM"
- compound: "Clc1ccc(Nc2nc(Nc3ccccc3)nc(Nc3ccc(-c4cc(-c5ccc(Cl)cc5)on4)cc3)n2)cc1"
  readout: "TGI"
  val: "> 100 µM"
- compound: "COc1cc(COC(=O)N2CC=CC2C(=O)O)c([N+](=O)[O-])cc1OC (centres undefined)"
  readout: "TGI"
  val: "> 100 µM"
- compound: "CC(C)(C)NC(=O)[C@H]1CC[C@H]2[C@@H]3CC[C@H]4NC(=O)C=C[C@]4(C)[C@H]3CC[C@]12C"
  readout: "TGI"
  val: "> 100 µM"
- compound: "C[N+]1(CCC(=O)c2ccccc2)CCC2CCC(C2)C1 (centres undefined)"
  readout: "TGI"
  val: "> 100 µM"
- compound: "CN1N=C(c2ccccc2)C(C(c2ccccc2[N+](=O)[O-])C2C(=O)N(C)N=C2c2ccccc2)C1=O (centres undefined)"
  readout: "TGI"
  val: "> 100 µM"
- compound: "CCOC(=O)C(NO)C(Sc1ccccc1)c1ccc(OC)cc1 (centres undefined)"
  readout: "TGI"
  val: "> 100 µM"
- compound: "Cc1nc(N)c(-c2ccccc2)s1"
  readout: "TGI"
  val: "> 100 µM"
- compound: "COc1ccc2nc3cc([N+](=O)[O-])ccc3c(NNc3ccccc3)c2c1"
  readout: "TGI"
  val: "46.3 µM"
- compound: "CC12C(=C(C#N)C(=N)N1c1ccc(Cl)c(Cl)c1)C=C(O)CC2SCCS(=O)(=O)O (centres undefined)"
  readout: "TGI"
  val: "> 100 µM"
- compound: "CC1=C[C@@H](C)C[C@]2(C)CC[C@H](O2)[C@]23CC[C@](CO)(C[C@H](O2)[C@@H]2O[C@@](C)(CC2=O)[C@@H](O)[C@H]2CC[C@@]4(CCC[C@@H](O4)[C@H](C)C(=O)O[C@H]4C[C@H]([C@]5(O)OCC[C@H](C)[C@@H]5O)O[C@H]4C=C1)O2)O3"
  readout: "TGI"
  val: "> 10 µM"

###

GI50 values recorded for MDA-MB-435

- given.smiles: "Cc1ccc(NC(=O)Nc2c(Cl)cccc2Cl)cn1"
  GI50: "1960 nM"
- given.smiles: "CN1CCN(c2ccc(NC(=O)c3cncnc3Nc3ccc(OCc4cccc(F)c4)c(Cl)c3)cc2)CC1"
  GI50: "972 nM"
- given.smiles: "NC1=NC(=O)/C(=C/c2ccc3ncccc3c2)S1"
  GI50: "> 10900 nM"
- given.smiles: "N#Cc1ccccc1C#C/C=C\\C#CC#C/C=C\\C#Cc1ccccc1C#N"
  GI50: "8490 nM"
- given.smiles: "COc1ccc(-c2nn(-c3ccc(NC(=O)c4cc(Cl)cc(Cl)c4)cc3)cc2-c2ccncc2)cc1Cl"
  GI50: "> 100000 nM"
- given.smiles: "O=C1c2ccccc2C(=O)c2c1ccc1c(=O)n(-c3ccccc3C(F)(F)F)nnc21"
  GI50: "1660 nM"
- given.smiles: "Cc1ccc(/C=C/c2c(C(=O)/C=C/c3ccc(Cl)cc3)c(C)nc3ccccc23)cc1"
  GI50: "2050 nM"
- given.smiles: "Nc1nnnc2nc[nH]c12"
  GI50: "542 nM"
- given.smiles: "C/C(=N/O)c1ccc2c(c1)/C(=N/O)c1ccccc1-2"
  GI50: "18700 nM"
- given.smiles: "CCN(CC)c1ccc2nc3c4ccccc4c(=O)cc-3n(-c3ccccc3)c2c1"
  GI50: "899 nM"
- given.smiles: "O=C(Nc1ccc(-n2ccc3c(NC(=O)c4ccccc4)nccc32)cc1)Nc1cccc(C(F)(F)F)c1"
  GI50: "4570 nM"
- given.smiles: "CCOc1ccc2c(c1)CN(Cc1ccc(Cl)cc1)CO2"
  GI50: "15200 nM"
- given.smiles: "O=C(COc1ccc(OCC(=O)N2C(=O)CN(c3ccccc3)C2=S)cc1)N1C(=O)CN(c2ccccc2)C1=S"
  GI50: "> 25000 nM"
- given.smiles: "Cc1nc(-c2cnc(NC(C)C)n(C)c2=O)ccc1Oc1ccnc(-c2cnn(C)c2)c1"
  GI50: "2980 nM"
